experimental.protocol: Tmax in Wistar rat brain at 9 mg/kg per os administered as a single dose by LC-MS/MS analysis
Type: ADME, organism-based
conditions: po
result.type: Tmax (h)
Numbers only; they are read as h.

(Q) Return Tmax (reported value) for this molecule: O=S(=O)(c1cncc2ccccc12)N1CCC[C@H]1CCN1CCN(c2cccc3sccc23)CC1
(A) 1

---

target.desc: 5-hydroxytryptamine receptor 1A (Homo sapiens, UniProt P08908)
Sequence (P08908 whole entry): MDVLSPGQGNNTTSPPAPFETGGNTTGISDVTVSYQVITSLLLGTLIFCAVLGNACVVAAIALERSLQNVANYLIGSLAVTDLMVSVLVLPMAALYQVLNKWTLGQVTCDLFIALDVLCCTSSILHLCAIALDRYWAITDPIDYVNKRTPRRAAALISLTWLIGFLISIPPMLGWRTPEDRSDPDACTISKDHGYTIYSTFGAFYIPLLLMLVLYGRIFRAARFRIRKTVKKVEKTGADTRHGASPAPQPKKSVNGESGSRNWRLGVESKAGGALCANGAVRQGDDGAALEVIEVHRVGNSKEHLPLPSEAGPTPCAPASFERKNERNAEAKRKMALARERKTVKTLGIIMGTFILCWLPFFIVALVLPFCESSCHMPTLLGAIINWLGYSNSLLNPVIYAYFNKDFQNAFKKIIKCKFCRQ
experimental.protocol: biochemical
Description: Displacement of [3H]-8-OH-DPAT from human 5-HT1AR expressed in HEK293 cell membranes after 1 hr by microbeta counting method
result.type: pKi
Keep it numeric: pKi is minus log10 of the concentration in mol/L.

Recorded results for 4 molecules are shown here.
[[record]]
smiles_text = "O=S(=O)(c1cccc2ncccc12)N1CC[C@@H]1CCN1CCN(c2nsc3ccccc23)CC1"
target_desc = "5-hydroxytryptamine receptor 1A (Homo sapiens, UniProt P08908)"
measured = 7.27

[[record]]
smiles_text = "O=S(=O)(c1cccc2ncccc12)N1CCC[C@H]1CCN1CCC(c2noc3cc(F)ccc23)CC1"
target_desc = "5-hydroxytryptamine receptor 1A (Homo sapiens, UniProt P08908)"
measured = 6.83

[[record]]
smiles_text = "O=S(=O)(c1cccc2ncccc12)N1CCCC[C@@H]1CCN1CCN(c2nsc3ccccc23)CC1"
target_desc = "5-hydroxytryptamine receptor 1A (Homo sapiens, UniProt P08908)"
measured = 7.55

[[record]]
smiles_text = "O=S(=O)(c1cncc2ccccc12)N1CC[C@@H]1CCN1CCN(c2cccc3sccc23)CC1"
target_desc = "5-hydroxytryptamine receptor 1A (Homo sapiens, UniProt P08908)"
measured = 7.80


(Q) Report value: pKi, system: 5-hydroxytryptamine receptor 1A (Homo sapiens, UniProt P08908), molecule: O=S(=O)(c1cncc2ccccc12)N1CCC[C@H]1CCN1CCN(c2cccc3sccc23)CC1
(A) 7.74

(Q) Report value: pKi, system: 5-hydroxytryptamine receptor 1A (Homo sapiens, UniProt P08908), molecule: O=S(=O)(c1cncc2ccccc12)N1CCC[C@H]1CCN1CCN(c2cccc3[nH]ccc23)CC1
(A) 8.10

(Q) Report value: pKi, system: 5-hydroxytryptamine receptor 1A (Homo sapiens, UniProt P08908), molecule: O=S(=O)(c1cncc2ccccc12)N1CCC[C@@H]1CCN1CCN(c2nsc3ccccc23)CC1
(A) 7.85

(Q) Report value: pKi, system: 5-hydroxytryptamine receptor 1A (Homo sapiens, UniProt P08908), molecule: O=S(=O)(c1cccc2cnccc12)N1CCC[C@H]1CCN1CCN(c2nsc3ccccc23)CC1
(A) 7.43

(Q) Report value: pKi, system: 5-hydroxytryptamine receptor 1A (Homo sapiens, UniProt P08908), molecule: O=S(=O)(c1cccc2ncccc12)N1CCCCC[C@H]1CCN1CCN(c2nsc3ccccc23)CC1
(A) 7.32
